This collection of values is drawn from PubChem BioAssay (NCI).

# Test system: HOP-92 NSCLC
# assay_text: NCI tumour cell line growth inhibition, 48 h
measure: TGI (µM)
Answers are plain numbers, in µM.

{"columns": ["entry_smiles", "readout_number"],
 "data": [
  ["Cc1ccc(Nc2nc3c(s2)C(=O)c2ccccc2C3=O)cc1", 14.3],
  ["CN1CCN(Cc2ccc(NC(=O)c3nc4ccc5[nH]ncc5c4c4c3CCCC4)cc2C(F)(F)F)CC1", 1.35],
  ["C=C1C(=O)O[C@H]2[C@H]1CC/C(COC(=O)NCc1ccc(Cn3c(=O)sn(CCI)c3=O)cc1)=C\\CC[C@@]1(C)O[C@@H]21", 2.76],
  ["CN1CN(c2ccccc2)C2(CCN(Cc3nc4ccccc4s3)CC2)C1=O", 28.5],
  ["CS(=O)(=O)Nc1ccc(Nc2cc[nH]c3ccc4nccc4c23)cc1", 46.3]
]}

// for each molecule below, give its TGI
1. O=C(Nc1cccc(-n2cc(-c3ccncc3)c(-c3ccc(Cl)c(O)c3)n2)c1)Nc1cccc(C(F)(F)F)c1
2. O=C(c1ccco1)N(Cc1cccnc1)C(=S)N(Cc1cccnc1)C(=O)c1ccco1
3. COc1cccc(-n2ncc3c(N/N=C/c4ccc(F)cc4)ncnc32)c1
4. O=c1ccc(N=Nc2ccccc2)ccc1Cl

[reply]
2.23
38.7
19.9
28.1

[ask] Name the recorded TGI for Cc1nn(-c2ccccc2)c(-n2ccnc2)c1/C=N/Nc1nc(-c2ccc(Cl)c(Cl)c2)cs1 .
[reply] 3.49

----------
For each entry below, report its TGI value.
# Tested on: SF-268 CNS
# assay_text: NCI tumour cell line growth inhibition, 48 h
Give bare numbers, in µM.

{"columns": ["molecule", "readout_number"],
 "data": [
  ["COc1ccc(CN2CCc3c(Sc4ccccc4)nc(N)nc3C2=O)c(OC)c1", 26],
  ["C=C(C)[C@@H]1CC[C@]2(COC(C)=O)CC[C@]3(C)[C@H](CC[C@@H]4[C@@]5(C)CCCN(C(C)=O)C(C)(C)[C@@H]5CC[C@]43C)[C@@H]12", 13.5],
  ["COc1cc([C@@H]2c3cc4c(cc3[C@@H](NC(=O)c3cccc(N)c3)C3COC(=O)[C@@H]32)OCO4)cc(OC)c1O (stereo not given in full)", 13.9],
  ["CCOC(=O)c1c2c(n(Cc3ccc(Cl)cc3Cl)c1C)-c1nc(Cc3ccccc3)[nH]c1C(=O)C2=O", 4.28],
  ["C=CCOC1=CC(=O)c2ccccc2C1=O", 14.5]
]}

// for each molecule below, give its TGI
1. C/C=C(/C(=C/C)c1ccc(O)cc1)c1ccc(O)cc1
2. Cn1cc2ccccc2c1-c1nc(F)nc(Oc2ccc3c(c2)CC[C@@H]2C3CC[C@@]3(C)C2CC[C@@H]3O)n1 (stereo not given in full)
3. CC(NC(=O)CNP(=O)(c1ccccc1)c1ccccc1)C(=O)NC(Cc1ccccc1)C(=O)OCc1ccccc1 (stereo not given)

[reply]
1: 22.8; 2: 28.7; 3: 57.2

----------
# Tested on: KM12 colon
# assay_text: NCI tumour cell line growth inhibition, 48 h
measure: GI50

For orientation, consider the following solved cases.
{"columns": ["molecule", "subject_of_test", "result"],
 "data": [
  ["C=C1C(=O)O[C@H]2[C@H]1CC/C(COC(=O)NCc1[nH]nc3ccccc13)=C\\CC[C@@]1(C)O[C@@H]21", "KM12 colon", "4.25 µM"],
  ["CC1=C(C(=O)Nc2ccc(Cl)c(Cl)c2)C(c2ccccc2Cl)NC(=S)N1 (stereo not given)", "KM12 colon", "8.71 µM"],
  ["Cc1cc(I)cc(CN(C)CCN(C)C)c1O", "KM12 colon", "46.3 µM"]
]}

// for each molecule below, give its GI50
1. COc1cccc(-n2ncc3c(N/N=C/c4ccc(F)cc4)ncnc32)c1
2. CCCn1c2c(c3ccccc3c1=O)C(=O)c1cc3c(cc1-2)OCO3

[reply]
18.4 µM
31.5 µM

----------
# System: MOLT-4 leukemia
# assay_text: NCI tumour cell line growth inhibition, 48 h
For each entry below, report its TGI value.
Answers are plain numbers, in µM.

For orientation, consider the following solved cases.
{"columns": ["entry_smiles", "subject_of_test", "readout_number"],
 "data": [
  ["C=C1C(=O)O[C@H]2[C@H]1CC/C(COC(=O)NCc1[nH]nc3ccccc13)=C\\CC[C@@]1(C)O[C@@H]21", "MOLT-4 leukemia", 5.97],
  ["CCN(CC)c1ccc2cc(C(=O)Nc3ccccc3OC)c(=N)oc2c1", "MOLT-4 leukemia", 17.2],
  ["COc1cc(-c2cc(/C=C3\\C(=O)Nc4ccc(Cl)cc43)[nH]n2)cc(OC)c1OC", "MOLT-4 leukemia", 8.87]
]}

Now take the following molecule into account.
[ask] Name the recorded TGI for CC(C)(C)CC(C)(C)c1ccc(OCCSC(=N)N)cc1 .
[reply] 4.8

----------
# Test system: MDA-MB-435
Field 'call' accepts active, inactive

[ask] Which outcome was entered for the molecule Cc1ccc(NS(=O)(=O)c2ccc(-c3cnc(C4CC4)o3)cc2)cc1C in this test?
[reply] active

[ask] Which outcome was entered for the molecule COc1ccc(-c2cc3c(OC)c(OC)c(OC)cc3oc2=O)cc1 in this test?
[reply] inactive

[ask] Which outcome was entered for the molecule CCC(/C=C(C)/C=C/C(=O)c1c(O)c(-c2ccc(O)cc2)c[nH]c1=O)CO (stereo not given) in this test?
[reply] inactive

[ask] Which outcome was entered for the molecule CCCCCCCCCCCCCCCCNC(=O)OC(C)C in this test?
[reply] inactive

[ask] Which outcome was entered for the molecule CC(C)(C)CC(C)(C)c1ccc(OCCSC(=N)N)cc1 in this test?
[reply] inactive

[ask] Which outcome was entered for the molecule O=[N+]([O-])c1cc([N+](=O)[O-])c(N2CCCC2)cc1NN=C(c1ccc(O)cc1)c1ccc(O)cc1 in this test?
[reply] inactive

----------
For each entry below, report its log10 of TGI value.
# Tested on: HOP-62 NSCLC
# assay_text: NCI tumour cell line growth inhibition, 48 h
Where a SMILES comes first, the peptide text is derived from it. The star is where a group is joined. CH2Cl = ClC*
Scale: decimal log of TGI, TGI in µM.

For orientation, consider the following solved cases.
{"columns": ["compound", "measure", "readout_number"],
 "data": [
  ["[N-]=[N+]=NC1=CC(=O)c2cccc3cccc1c23", "log10 of TGI", 1.68],
  ["Cc1nnc([S-])o1.[Au+].c1ccc([PH+](c2ccccc2)c2ccccc2)cc1", "log10 of TGI", 0.55],
  ["CC(=O)NC(CC(C)C)C(=O)NC(Cc1ccccc1)C(=O)CCl (stereo not drawn) (Ac-Leu-Phe-CH2Cl; configuration not given here)", "log10 of TGI", 1.52],
  ["CCCCC/C=C/C(=O)CCc1ccc(O)c(OC)c1", "log10 of TGI", 1.34],
  ["COc1ccc(CN2CCc3c(Sc4ccccc4)nc(N)nc3C2=O)c(OC)c1", "log10 of TGI", 1.87],
  ["C/C=C(/C(=C/C)c1ccc(O)cc1)c1ccc(O)cc1", "log10 of TGI", 1.20]
]}

// for each compound below, give its log10 of TGI
1. CCC(/C=C(C)/C=C/C(=O)c1c(O)c(-c2ccc(O)cc2)c[nH]c1=O)CO (stereo not given)
2. CN(N=O)C(=O)N(N)CCCCC(NC(=O)OCc1ccccc1)C(=O)OCc1ccccc1 (stereo not given)
3. CCCCCCCCCCCCCCCCNC(=O)OC(C)C

[reply]
1. 1.57
2. 1.53
3. 1.05

----------
For each entry below, report its TGI value.
# Tested on: HCT-15 colon
# assay_text: NCI tumour cell line growth inhibition, 48 h
Answers are plain numbers, in µM.

For orientation, consider the following solved cases.
{"columns": ["compound", "value_units", "readout_number"],
 "data": [
  ["O=C(c1ccco1)N(Cc1cccnc1)C(=S)N(Cc1cccnc1)C(=O)c1ccco1", "µM", 77.7],
  ["CCN(CCCNC(=O)Cc1cc(=O)oc2cc(N(C)C)ccc12)CCNc1ccnc2cc(Cl)ccc12", "µM", 29.5]
]}

Now take the following compound into account.
[ask] For the record Cn1cc2ccccc2c1-c1nc(F)nc(Oc2ccc3c(c2)CC[C@@H]2C3CC[C@@]3(C)C2CC[C@@H]3O)n1 (stereo not given in full) , what value of TGI is listed for HCT-15 colon?
[reply] 12.2

----------
# Tested on: PC-3 prostate
# assay_text: NCI tumour cell line growth inhibition, 48 h; in the data active means GI50 below about 0.43 µM; inactive means the rest
Field 'call' accepts true for active, false for inactive

Worked examples, 5 compounds total:
{"columns": ["compound", "group_label"],
 "data": [
  ["CN(C)c1ccc(O)c2c1CC1CC3C(N(C)C)C(=O)C(C(N)=O)=C(O)C3(O)C(=O)C1=C2O (centres undefined)", "false"],
  ["CC(C)(C)CC(C)(C)c1ccc(OCCSC(=N)N)cc1", "false"],
  ["CCC(CC)COC(=O)[C@H](C)N[P@](=O)(OC[C@H]1O[C@@](C#N)(c2ccc3c(N)ncnn23)[C@H](O)[C@@H]1O)Oc1ccccc1", "false"],
  ["COc1cccc(-n2ncc3c(N/N=C/c4ccc(F)cc4)ncnc32)c1", "false"],
  ["C=C1C(=O)O[C@H]2[C@H]1CC/C(COC(=O)NCc1[nH]nc3ccccc13)=C\\CC[C@@]1(C)O[C@@H]21", "false"]
]}

[ask] Which outcome was entered for the compound COc1cc(-c2cc(/C=C3\C(=O)Nc4ccc(Cl)cc43)[nH]n2)cc(OC)c1OC in this test?
[reply] false

[ask] Which outcome was entered for the compound CN(CCO)C1CCN(c2ccc(Nc3ncc4c5ccnc(F)c5n(C5CCCC5)c4n3)nc2)CC1 in this test?
[reply] false

[ask] Which outcome was entered for the compound O[C@H]1C=C2[C@H](C[C@@H]1O)CN1C[C@H]2c2cc3c(cc21)OCO3 in this test?
[reply] false

[ask] Which outcome was entered for the compound O=C1c2ccc3c4c(ccc(c24)C(=O)N1CCCNCc1ccccc1F)C(=O)N(CCCNCc1ccccc1F)C3=O in this test?
[reply] true
